Target: T1, human PVRIG-mFc protein (Acro, PVG-H5253) (human, UniProt Q6DKI7 41-171, limits assumed)
T1 construct: extracellular domain; Bought protein; also called PVRIG-ECD-mFc; not shown: mouse Fc tag of the bought protein
T1 sequence (looked up): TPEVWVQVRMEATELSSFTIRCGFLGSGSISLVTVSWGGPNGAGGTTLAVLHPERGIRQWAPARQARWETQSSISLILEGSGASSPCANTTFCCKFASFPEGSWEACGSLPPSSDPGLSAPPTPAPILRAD
Experiment: FACS blocking of PVRIG-mFc binding to CHO-K1-CD112 cells; competitor CD112
Below, each of the binders is paired with its reported % AUC to parental Ab value.
Give the value, in units of %, as a plain number.

PVRIG-A105-H3 (Fc fusion, VHH-human IgG1 Fc format is stated for the parental VHH antibodies; not restated for the humanized variants; also called A105.VH3; not shown: human IgG1 hinge-CH2-CH3 (Fc)) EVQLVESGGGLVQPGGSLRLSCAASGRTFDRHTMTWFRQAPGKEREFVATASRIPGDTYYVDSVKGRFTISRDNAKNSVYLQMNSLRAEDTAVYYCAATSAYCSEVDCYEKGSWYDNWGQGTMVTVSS | 95.8
PVRIG-A50-H1 (Fc fusion, VHH-human IgG1 Fc format is stated for the parental VHH antibodies; not restated for the humanized variants; also called A50.VH1; not shown: human IgG1 hinge-CH2-CH3 (Fc)) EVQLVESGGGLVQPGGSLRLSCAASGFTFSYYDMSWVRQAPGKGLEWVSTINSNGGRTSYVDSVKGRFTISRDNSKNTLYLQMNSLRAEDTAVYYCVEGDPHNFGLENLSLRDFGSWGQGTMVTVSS | 94
PVRIG-A50-H1b (Fc fusion, VHH-human IgG1 Fc format is stated for the parental VHH antibodies; not restated for the humanized variants; also called A50.VH1b; not shown: human IgG1 hinge-CH2-CH3 (Fc)) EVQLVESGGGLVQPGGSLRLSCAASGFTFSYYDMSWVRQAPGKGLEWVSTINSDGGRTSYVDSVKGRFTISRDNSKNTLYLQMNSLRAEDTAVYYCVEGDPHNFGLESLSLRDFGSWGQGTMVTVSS | 85.5
PVRIG-A50-H1d (Fc fusion, VHH-human IgG1 Fc format is stated for the parental VHH antibodies; not restated for the humanized variants; also called A50.VH1d; not shown: human IgG1 hinge-CH2-CH3 (Fc)) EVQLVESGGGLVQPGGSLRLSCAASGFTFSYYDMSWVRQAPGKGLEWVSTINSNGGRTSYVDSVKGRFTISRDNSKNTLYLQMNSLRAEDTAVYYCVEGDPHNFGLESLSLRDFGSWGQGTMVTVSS | 98.7
PVRIG-A50-H1c (Fc fusion, VHH-human IgG1 Fc format is stated for the parental VHH antibodies; not restated for the humanized variants; also called A50.VH1c; not shown: human IgG1 hinge-CH2-CH3 (Fc)) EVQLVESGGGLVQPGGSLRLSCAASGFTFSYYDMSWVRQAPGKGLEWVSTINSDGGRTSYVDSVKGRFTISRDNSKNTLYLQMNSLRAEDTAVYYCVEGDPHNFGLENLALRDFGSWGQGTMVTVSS | 108
PVRIG-A105-H1 (Fc fusion, VHH-human IgG1 Fc format is stated for the parental VHH antibodies; not restated for the humanized variants; also called A105.VH1; not shown: human IgG1 hinge-CH2-CH3 (Fc)) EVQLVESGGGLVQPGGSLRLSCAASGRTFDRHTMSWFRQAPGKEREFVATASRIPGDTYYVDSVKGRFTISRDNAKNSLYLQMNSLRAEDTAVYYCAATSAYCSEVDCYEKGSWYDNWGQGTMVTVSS | 97.9

Exercise: Field request: % AUC to parental Ab | item: PVRIG-A105-H3a (Fc fusion, VHH-human IgG1 Fc format is stated for the parental VHH antibodies; not restated for the humanized variants; also called A105.VH3a; not shown: human IgG1 hinge-CH2-CH3 (Fc)) EVQLVESGGGLVQPGGSLRLSCAASGRTFDRHTMTWFRQAPGKEREFVATASRIPGDTYYVDSVKGRFTISRDNAKNSVYLQMNSLRAEDTAVYYCAATSAYSSEVDSYEKGSWYDNWGQGTMVTVSS
Solution: 3100

Exercise: Next record, please: PVRIG-A118 (Fc fusion, Alpaca VHH expressed as VHH-hinge-CH2-CH3 of human IgG1; not shown: human IgG1 hinge-CH2-CH3 (Fc)) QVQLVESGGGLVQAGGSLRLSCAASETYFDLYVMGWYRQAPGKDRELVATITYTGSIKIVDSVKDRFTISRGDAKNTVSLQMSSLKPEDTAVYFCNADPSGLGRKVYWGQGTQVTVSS
Solution: 100

Exercise: Next record, please: PVRIG-A118-H3 (Fc fusion, VHH-human IgG1 Fc format is stated for the parental VHH antibodies; not restated for the humanized variants; also called A118.VH3; not shown: human IgG1 hinge-CH2-CH3 (Fc)) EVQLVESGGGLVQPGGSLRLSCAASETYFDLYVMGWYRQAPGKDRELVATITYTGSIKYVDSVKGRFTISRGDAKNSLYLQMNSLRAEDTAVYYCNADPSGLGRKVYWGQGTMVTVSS
Solution: 107

Exercise: Next record, please: PVRIG-A118-H6 (Fc fusion, VHH-human IgG1 Fc format is stated for the parental VHH antibodies; not restated for the humanized variants; also called A118.VH6; not shown: human IgG1 hinge-CH2-CH3 (Fc)) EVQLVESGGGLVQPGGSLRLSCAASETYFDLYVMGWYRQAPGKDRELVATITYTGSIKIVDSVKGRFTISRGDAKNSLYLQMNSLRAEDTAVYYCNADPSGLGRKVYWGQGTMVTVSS
Solution: 100

Exercise: Next record, please: PVRIG-A50-H1a (Fc fusion, VHH-human IgG1 Fc format is stated for the parental VHH antibodies; not restated for the humanized variants; also called A50.VH1a; not shown: human IgG1 hinge-CH2-CH3 (Fc)) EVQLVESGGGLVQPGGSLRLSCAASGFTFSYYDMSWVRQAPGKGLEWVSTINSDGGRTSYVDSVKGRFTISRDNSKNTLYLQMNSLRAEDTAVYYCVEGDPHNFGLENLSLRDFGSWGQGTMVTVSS
Solution: 102

Exercise: Next record, please: PVRIG-A105 (Fc fusion, Alpaca VHH expressed as VHH-hinge-CH2-CH3 of human IgG1; not shown: human IgG1 hinge-CH2-CH3 (Fc)) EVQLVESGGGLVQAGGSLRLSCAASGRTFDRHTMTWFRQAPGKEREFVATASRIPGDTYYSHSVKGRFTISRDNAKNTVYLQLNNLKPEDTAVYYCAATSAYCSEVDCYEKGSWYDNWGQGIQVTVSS
Solution: 100

Exercise: Next record, please: PVRIG-A118-H2 (Fc fusion, VHH-human IgG1 Fc format is stated for the parental VHH antibodies; not restated for the humanized variants; also called A118.VH2; not shown: human IgG1 hinge-CH2-CH3 (Fc)) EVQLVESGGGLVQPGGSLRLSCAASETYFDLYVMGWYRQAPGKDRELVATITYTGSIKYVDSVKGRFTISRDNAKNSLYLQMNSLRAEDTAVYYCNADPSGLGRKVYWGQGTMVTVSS
Solution: 120

Exercise: Next record, please: PVRIG-A50-H2a (Fc fusion, VHH-human IgG1 Fc format is stated for the parental VHH antibodies; not restated for the humanized variants; also called A50.VH2a; not shown: human IgG1 hinge-CH2-CH3 (Fc)) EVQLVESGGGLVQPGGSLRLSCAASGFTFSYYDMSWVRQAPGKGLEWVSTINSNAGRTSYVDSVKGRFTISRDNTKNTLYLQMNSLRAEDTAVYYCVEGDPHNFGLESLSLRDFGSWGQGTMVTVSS
Solution: 91.6

Exercise: Next record, please: PVRIG-A50 (Fc fusion, Alpaca VHH expressed as VHH-hinge-CH2-CH3 of human IgG1 (heavy-chain antibody); also called PVRIG-50; not shown: human IgG1 hinge-CH2-CH3 (Fc)) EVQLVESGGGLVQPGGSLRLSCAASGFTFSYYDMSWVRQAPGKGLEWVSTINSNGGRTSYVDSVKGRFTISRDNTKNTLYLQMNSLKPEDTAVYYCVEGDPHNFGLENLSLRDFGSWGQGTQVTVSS
Solution: 100
